Reference source: paper PMC7570694

target: AChE (Electrophorus electricus, UniProt O42275); test: AChE inhibition, modified Ellman spectrophotometric method; format: biochemical; conditions: read-out: AChE % Inhibition 10^−3 M
Sequence (O42275 24-633): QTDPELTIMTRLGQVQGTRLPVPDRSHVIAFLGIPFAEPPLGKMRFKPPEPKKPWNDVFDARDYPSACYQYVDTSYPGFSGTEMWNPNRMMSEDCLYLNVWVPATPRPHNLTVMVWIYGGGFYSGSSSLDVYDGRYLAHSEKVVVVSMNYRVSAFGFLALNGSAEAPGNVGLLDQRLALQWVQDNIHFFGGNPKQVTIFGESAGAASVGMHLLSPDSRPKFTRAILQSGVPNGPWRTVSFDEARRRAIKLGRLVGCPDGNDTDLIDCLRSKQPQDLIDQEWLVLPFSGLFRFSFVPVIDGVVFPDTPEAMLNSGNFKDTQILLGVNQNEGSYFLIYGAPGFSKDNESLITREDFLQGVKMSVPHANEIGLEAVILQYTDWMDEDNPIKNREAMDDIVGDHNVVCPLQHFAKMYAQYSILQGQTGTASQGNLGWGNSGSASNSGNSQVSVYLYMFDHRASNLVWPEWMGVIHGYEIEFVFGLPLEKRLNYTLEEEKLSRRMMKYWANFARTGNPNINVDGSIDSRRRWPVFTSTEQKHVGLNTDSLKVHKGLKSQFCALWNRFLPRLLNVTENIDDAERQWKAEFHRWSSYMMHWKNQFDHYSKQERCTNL
# inhibition at 1000 µM values compiled below
Express the result in % but write the number alone.

Consider the worked cases shown below.
{"columns": ["molecule", "unit_symbol", "inhibition at 1000 µM"],
 "data": [
  ["COc1ccc(C=NNc2nc(-c3ccc(C(F)(F)F)cc3)cs2)cc1O [2i]", "%", 95.2],
  ["COc1cccc(C=NNc2nc(-c3ccc(C(F)(F)F)cc3)cs2)c1OC [2f]", "%", 71.7],
  ["COc1cccc(C=NNc2nc(-c3ccc(C(F)(F)F)cc3)cs2)c1 [2e]", "%", 90.6],
  ["COc1ccc(C=NNc2nc(-c3ccc(C(F)(F)F)cc3)cs2)cc1OC [2g]", "%", 93.5],
  ["Oc1cccc(C=NNc2nc(-c3ccc(C(F)(F)F)cc3)cs2)c1O [2c]", "%", 78.2],
  ["Oc1ccc(C=NNc2nc(-c3ccc(C(F)(F)F)cc3)cs2)cc1 [2b]", "%", 90.3],
  ["COc1cc(C=NNc2nc(-c3ccc(C(F)(F)F)cc3)cs2)cc(OC)c1O [2l]", "%", 62.8],
  ["COc1ccccc1C=NNc1nc(-c2ccc(C(F)(F)F)cc2)cs1 [2d]", "%", 89.5]
]}

Please turn your attention to the following entry.
Enter recorded inhibition at 1000 µM with AChE (Electrophorus electricus, UniProt O42275) for Oc1cccc(C=NNc2nc(-c3ccc(C(F)(F)F)cc3)cs2)c1 [2a] here.
93.4

* * *

molecular target: AChE (Electrophorus electricus, UniProt O42275); assay: AChE inhibition, modified Ellman spectrophotometric method; format: biochemical; conditions: read-out: AChE % Inhibition 10^-7 M
Consider the following molecules and their measured inhibition at 0.1 µM readings.
Entry rule: numbers only, all in %.

{"columns": ["molecule", "inhibition at 0.1 µM / %"],
 "data": [
  ["Oc1ccc(C=NNc2nc(-c3ccc(C(F)(F)F)cc3)cs2)cc1 [2b]", 58],
  ["COc1ccc(C=NNc2nc(-c3ccc(C(F)(F)F)cc3)cs2)cc1O [2i]", 71.8],
  ["COc1ccccc1C=NNc1nc(-c2ccc(C(F)(F)F)cc2)cs1 [2d]", 55.9],
  ["COc1cccc(C=NNc2nc(-c3ccc(C(F)(F)F)cc3)cs2)c1 [2e]", 62.4],
  ["COc1ccc(C=NNc2nc(-c3ccc(C(F)(F)F)cc3)cs2)cc1OC [2g]", 69.2]
]}

Fill in reported inhibition at 0.1 µM for this entry: Oc1cccc(C=NNc2nc(-c3ccc(C(F)(F)F)cc3)cs2)c1 [2a]
61

Indicate its recorded inhibition at 0.1 µM; the molecule in question is COc1ccc(O)c(C=NNc2nc(-c3ccc(C(F)(F)F)cc3)cs2)c1 [2j]
57.4

* * *

target: UniProt:O42275; experiment: AChE inhibition, modified Ellman spectrophotometric method; format: biochemical; details: read-out: AChE % Inhibition 10^-8 M
quantity_name: inhibition at 0.01 µM (%)
Answer format: numeric, % implied, no suffix.

Worked examples, 3 compounds total:
{"columns": ["mol_smiles", "measured_target", "inhibition at 0.01 µM (%)"],
 "data": [
  ["COc1ccc(O)c(C=NNc2nc(-c3ccc(C(F)(F)F)cc3)cs2)c1", "UniProt:O42275", 40.7],
  ["COc1ccc(C=NNc2nc(-c3ccc(C(F)(F)F)cc3)cs2)cc1OC", "UniProt:O42275", 43.1],
  ["Oc1cccc(C=NNc2nc(-c3ccc(C(F)(F)F)cc3)cs2)c1", "UniProt:O42275", 41.3]
]}

Read the entry COc1ccccc1C=NNc1nc(-c2ccc(C(F)(F)F)cc2)cs1 and write its reported inhibition at 0.01 µM.
38.2

Provide only the value of recorded inhibition at 0.01 µM for COc1ccc(C=NNc2nc(-c3ccc(C(F)(F)F)cc3)cs2)cc1O
42.7

Fill in reported inhibition at 0.01 µM for this entry: COc1cccc(C=NNc2nc(-c3ccc(C(F)(F)F)cc3)cs2)c1
44.3

Note inhibition at 0.01 µM for the compound shown: Oc1ccc(C=NNc2nc(-c3ccc(C(F)(F)F)cc3)cs2)cc1
43.9

* * *

Catalogue of inhibition at 0.001 µM readings, one per entry.
molecular target: AChE (Electrophorus electricus, UniProt O42275); experiment: AChE inhibition, modified Ellman spectrophotometric method; assay type: biochemical; conditions: read-out: AChE % Inhibition 10^-9 M
Kindly answer with a numeric value in %, unit omitted.

// below: answered molecules
{"columns": ["mol_smiles", "measured_target", "inhibition at 0.001 µM (%)"],
 "data": [
  ["COc1ccccc1C=NNc1nc(-c2ccc(C(F)(F)F)cc2)cs1", "AChE (Electrophorus electricus, UniProt O42275)", 29.8],
  ["Oc1ccc(C=NNc2nc(-c3ccc(C(F)(F)F)cc3)cs2)cc1", "AChE (Electrophorus electricus, UniProt O42275)", 21.2],
  ["COc1cccc(C=NNc2nc(-c3ccc(C(F)(F)F)cc3)cs2)c1", "AChE (Electrophorus electricus, UniProt O42275)", 21.6],
  ["COc1ccc(C=NNc2nc(-c3ccc(C(F)(F)F)cc3)cs2)cc1OC", "AChE (Electrophorus electricus, UniProt O42275)", 24.9],
  ["COc1ccc(O)c(C=NNc2nc(-c3ccc(C(F)(F)F)cc3)cs2)c1", "AChE (Electrophorus electricus, UniProt O42275)", 25.6],
  ["Oc1cccc(C=NNc2nc(-c3ccc(C(F)(F)F)cc3)cs2)c1", "AChE (Electrophorus electricus, UniProt O42275)", 20.4]
]}

Now let's try a different one.
Report value only: inhibition at 0.001 µM, AChE (Electrophorus electricus, UniProt O42275), COc1ccc(C=NNc2nc(-c3ccc(C(F)(F)F)cc3)cs2)cc1O
22.2

* * *

target: AChE (Electrophorus electricus, UniProt O42275); test: AChE inhibition, modified Ellman spectrophotometric method; assay type: biochemical; details: read-out: AChE % Inhibition 10^-5 M
Kind request: treat 80% as inclusive, so inhibition at 10 µM at 80% or higher is y, anything lower is n.

Some entries whose results are on file:
{"columns": ["compound", "measured_target", "group"],
 "data": [
  ["Oc1ccc(C=NNc2nc(-c3ccc(C(F)(F)F)cc3)cs2)cc1 [2b]", "AChE (Electrophorus electricus, UniProt O42275)", "n"],
  ["COc1ccc(C=NNc2nc(-c3ccc(C(F)(F)F)cc3)cs2)cc1O [2i]", "AChE (Electrophorus electricus, UniProt O42275)", "y"]
]}

Turning now to a further record.
Please tell me: is the compound COc1ccc(O)c(C=NNc2nc(-c3ccc(C(F)(F)F)cc3)cs2)c1 [2j] at or over 80% in terms of inhibition at 10 µM?
n

* * *

target: BChE (Equus caballus, UniProt P81908); test: biochemical; details: read-out: BChE % Inhibition 10^−3 M, compound at 10^−3 M; mean ± SD
Sequence (P81908 whole entry): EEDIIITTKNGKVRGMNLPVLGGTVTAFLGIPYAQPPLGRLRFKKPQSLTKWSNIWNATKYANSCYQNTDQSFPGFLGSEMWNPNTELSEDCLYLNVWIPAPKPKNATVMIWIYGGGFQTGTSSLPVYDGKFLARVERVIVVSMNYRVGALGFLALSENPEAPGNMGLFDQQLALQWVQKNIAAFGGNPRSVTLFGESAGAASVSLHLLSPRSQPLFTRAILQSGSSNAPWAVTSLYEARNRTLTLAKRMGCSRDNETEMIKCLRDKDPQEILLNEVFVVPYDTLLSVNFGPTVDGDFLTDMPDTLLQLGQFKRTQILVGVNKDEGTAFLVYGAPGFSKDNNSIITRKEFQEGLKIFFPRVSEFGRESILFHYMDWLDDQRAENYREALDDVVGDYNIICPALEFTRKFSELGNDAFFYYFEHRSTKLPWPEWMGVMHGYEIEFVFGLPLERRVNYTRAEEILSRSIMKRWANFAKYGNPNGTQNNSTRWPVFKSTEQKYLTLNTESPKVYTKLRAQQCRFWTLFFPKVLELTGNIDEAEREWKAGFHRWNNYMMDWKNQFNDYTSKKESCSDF
quantity_name: inhibition at 1000 µM (%)
Write the value in % as a bare number.

Look over these answered cases.
{"columns": ["mol_smiles", "measured_target", "val"],
 "data": [
  ["FC(F)(F)c1ccc(-c2csc(NN=Cc3ccc4c(c3)OCO4)n2)cc1", "BChE (Equus caballus, UniProt P81908)", 45.8],
  ["COc1cccc(C=NNc2nc(-c3ccc(C(F)(F)F)cc3)cs2)c1OC", "BChE (Equus caballus, UniProt P81908)", 40.9],
  ["COc1cc(C=NNc2nc(-c3ccc(C(F)(F)F)cc3)cs2)cc(OC)c1O", "BChE (Equus caballus, UniProt P81908)", 38.7],
  ["Oc1cccc(C=NNc2nc(-c3ccc(C(F)(F)F)cc3)cs2)c1O", "BChE (Equus caballus, UniProt P81908)", 43.6]
]}

Alright, here's another compound for you.
Input COc1cc(C=NNc2nc(-c3ccc(C(F)(F)F)cc3)cs2)cc(OC)c1OC , output reported inhibition at 1000 µM.
40.2

* * *

target: BChE (Equus caballus); test: biochemical; conditions: read-out: BChE % Inhibition 10^−4 M, compound at 10^−4 M; mean ± SD
Catalogue of inhibition at 100 µM values
Kindly answer with a numeric value in %, unit omitted.

Solved cases below.
{"columns": ["mol_smiles", "unit_symbol", "inhibition at 100 µM"],
 "data": [
  ["COc1cccc(C=NNc2nc(-c3ccc(C(F)(F)F)cc3)cs2)c1OC", "%", 31.5],
  ["COc1ccccc1C=NNc1nc(-c2ccc(C(F)(F)F)cc2)cs1", "%", 43.8],
  ["COc1ccc(C=NNc2nc(-c3ccc(C(F)(F)F)cc3)cs2)cc1O", "%", 41.5],
  ["COc1ccc(C=NNc2nc(-c3ccc(C(F)(F)F)cc3)cs2)cc1OC", "%", 40.4],
  ["FC(F)(F)c1ccc(-c2csc(NN=Cc3ccc4c(c3)OCO4)n2)cc1", "%", 34.3]
]}

Output inhibition at 100 µM of Oc1cccc(C=NNc2nc(-c3ccc(C(F)(F)F)cc3)cs2)c1
42.5
